Record: IC50 reported on Methionine aminopeptidase 1 (Homo sapiens, UniProt P53582).

Return reported IC50 values for all items listed beneath this line.
1. Cc1ccc2cccc(O)c2n1 [8-HYDROXY QUINALDINE]
2. Oc1cccc2cccnc12
3. Oc1c(CN2CCCCC2)cc(Cl)c2cccnc12

Data returned:
> 15 µM
> 15 µM
> 50 µM

---

Would you kindly list pIC50 for each of these compounds?
- ASSAY_EXPLANATION: Inhibition of Burkholderia pseudomallei recombinant methionine aminopeptidase 1 using H-Met-Gly-Pro-7-amino-4-methylcoumarin hydrochloride as substrate measured for 10 mins by fluorescence assay in presence of human recombinant DPP4
One number for each entry, as −log10 of the molar value.

Known results for compounds:
Nc1nnc(SCc2ccc(F)cc2)[nH]1 | 5.15
Cc1ccc(CSc2nnc(N)[nH]2)cc1 | 5.51
O=[N+]([O-])c1cc(CN2CCOCC2)c(O)c2ncccc12 | 4.22
Nc1nnc(SCc2ccc(Cl)cc2Cl)[nH]1 | 6.00
O=[N+]([O-])c1cc(CN2CCCC2)c(O)c2ncccc12 | 7.52
CN(C)Cc1cc([N+](=O)[O-])c2cccnc2c1O | 7.40

Next, consider the following compound.
Data request: Which pIC50 is listed for CN1CCN(Cc2cc([N+](=O)[O-])c3cccnc3c2O)CC1 ?
Data returned: 7.15
